Biological target: Mu-type opioid receptor (Homo sapiens, UniProt P35372);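 note: U2OS cells with beta-arrestin recruitment to OPRM1 by beta-gal complementation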
Sequence (P35372 whole entry): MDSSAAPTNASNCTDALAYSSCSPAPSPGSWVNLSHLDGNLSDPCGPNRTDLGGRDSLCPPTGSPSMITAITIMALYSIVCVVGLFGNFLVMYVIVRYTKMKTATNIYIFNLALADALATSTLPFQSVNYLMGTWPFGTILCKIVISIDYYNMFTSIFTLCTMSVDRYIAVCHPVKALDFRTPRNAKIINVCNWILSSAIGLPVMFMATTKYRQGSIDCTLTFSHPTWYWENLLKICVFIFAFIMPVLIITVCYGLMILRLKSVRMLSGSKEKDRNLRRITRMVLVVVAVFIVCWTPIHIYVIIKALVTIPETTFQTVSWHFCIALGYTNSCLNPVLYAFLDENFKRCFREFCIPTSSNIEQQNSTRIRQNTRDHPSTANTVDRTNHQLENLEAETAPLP
Type: functional, cell-based
Calls of active or inactive are those of the source.
Measured EC50 of individual entries
PARAMETER MEASURED: EC50

* CC(=O)N1CCC(N2CCN(c3ccccc3F)CC2)CC1 | 92.4 µM (inactive)
* Oc1cc2c(cc1CN1CCN(c3ncccn3)CC1)OCO2 | 92.5 µM (inactive)
* O=C(c1ccco1)N1CCN(Cc2ccccc2Br)CC1 | 92.5 µM (inactive)
* CCCCCCCC/C=C\CCCCCCCC(=O)NCCc1ccc(O)c(O)c1 | 92.3 µM (inactive)
* C=CCN1CCc2c(cc(O)c(O)c2Cl)C(c2ccccc2)C1 (stereo not given) | 92.4 µM (inactive)

====

Target: Caspase-3 (Homo sapiens);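 note: Dose-response selectivity test against caspase-3 for candidate inhibitors of sentrin-specific proteases (SENPs)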
Sequence (P42574 whole entry): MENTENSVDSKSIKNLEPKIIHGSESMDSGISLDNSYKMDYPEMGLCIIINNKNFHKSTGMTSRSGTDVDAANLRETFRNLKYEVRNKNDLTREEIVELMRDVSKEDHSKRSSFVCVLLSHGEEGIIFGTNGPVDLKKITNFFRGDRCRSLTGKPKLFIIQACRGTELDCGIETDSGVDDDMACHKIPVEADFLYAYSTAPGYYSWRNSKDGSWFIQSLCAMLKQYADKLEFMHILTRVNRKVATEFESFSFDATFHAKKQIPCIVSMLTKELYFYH
Format: functional
The source made the active and inactive calls.
Listed compounds paired with reported IC50
PARAMETER MEASURED: IC50

* COc1ccc(NC(=O)c2ccc(OCC3CCCO3)cc2)cc1Cl (stereo not given) | 15.6 µM (active)
* CCc1cccc2c(C(=O)COC(=O)c3ccccc3)c[nH]c12 | 49.9 µM (active)
* N#Cc1c(NC(=O)c2ccc(Br)o2)n(-c2ccccc2)c2nc3ccccc3nc12 | 29.6 µM (active)
* Fc1ccccc1CSc1nnc(-c2ccccc2)o1 | 32 µM (active)
* CCOc1ccc(/N=C/c2c(O)oc3ccccc3c2=O)cc1 | 32.8 µM (active)

====

Target: Protein RecA (Mycobacterium tuberculosis)
Assay: Fluorescence Cell-Free Homogeneous Dose Retest to Identify Inhibitors of RecA-Intein Splicing Activity. [Related pubchem assays (depositor defined):AID2097, AID2223, AID489010, AID492950]
Assay type: functional
Active and inactive are the calls of the source.
Outcome codes: active, inactive

• c1ccc(-c2ccc(C3CCCN3)cc2)cc1 (configuration not stated) = inactive
• CC(C)[n+]1ccn(C2=C([N-]S(=O)(=O)c3ccccc3)C(=O)c3ccccc3C2=O)c1 = active
• CCCCCCCCCCOC(=O)Cn1c(COc2ccccc2)[n+](C)c2ccccc21 = active
• Clc1ccc(-c2nnc(Sc3nc4ccccc4o3)c3ccccc23)cc1 = active
• CCOC(=O)c1c(NC(=O)CCl)sc(C(=O)N(CC)CC)c1C = active
• COC(=O)c1ccc(C(c2c(C)n[nH]c2O)c2c(C)n[nH]c2O)cc1 = active
• O=C(N/N=C/c1cc(Cl)cc([N+](=O)[O-])c1O)c1ccccc1NS(=O)(=O)c1cccs1 = active
• O=C(Nc1cccc(F)c1)N1CCC(c2ccccc2)CC1 = inactive
• COc1ccc(OCc2cc(C(=O)NC3CCOC(C)(C)C3)no2)c2ccccc12 (configuration not stated) = active
• Cc1ccc2c(c1)c1c3n2CCN(C(=O)CCl)C3CCC1 (configuration not stated) = active
• FC(F)(F)c1ccc2c(c1)N(CCCN1CCN(CCCl)CC1)c1ccccc1S2 = active

====

Recorded EC50, one value per entry.
Target: Peroxisome proliferator-activated receptor gamma/Nuclear receptor coactivator 1 (Homo sapiens, UniProt P37231)
Sequence (P37231 whole entry): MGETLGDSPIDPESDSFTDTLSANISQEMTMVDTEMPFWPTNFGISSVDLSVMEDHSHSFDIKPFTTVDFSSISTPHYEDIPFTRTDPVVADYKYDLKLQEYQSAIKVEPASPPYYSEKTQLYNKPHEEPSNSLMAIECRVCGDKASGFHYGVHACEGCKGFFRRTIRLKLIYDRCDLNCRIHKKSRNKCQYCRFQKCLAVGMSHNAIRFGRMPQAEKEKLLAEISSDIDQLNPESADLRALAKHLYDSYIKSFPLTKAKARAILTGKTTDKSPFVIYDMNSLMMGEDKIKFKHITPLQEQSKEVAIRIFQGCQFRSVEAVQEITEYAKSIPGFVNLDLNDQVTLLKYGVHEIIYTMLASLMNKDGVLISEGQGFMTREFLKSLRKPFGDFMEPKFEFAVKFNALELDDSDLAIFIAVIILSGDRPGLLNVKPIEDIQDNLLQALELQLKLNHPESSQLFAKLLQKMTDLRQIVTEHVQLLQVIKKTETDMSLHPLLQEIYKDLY
Sequence (Q15788 whole entry, further chain): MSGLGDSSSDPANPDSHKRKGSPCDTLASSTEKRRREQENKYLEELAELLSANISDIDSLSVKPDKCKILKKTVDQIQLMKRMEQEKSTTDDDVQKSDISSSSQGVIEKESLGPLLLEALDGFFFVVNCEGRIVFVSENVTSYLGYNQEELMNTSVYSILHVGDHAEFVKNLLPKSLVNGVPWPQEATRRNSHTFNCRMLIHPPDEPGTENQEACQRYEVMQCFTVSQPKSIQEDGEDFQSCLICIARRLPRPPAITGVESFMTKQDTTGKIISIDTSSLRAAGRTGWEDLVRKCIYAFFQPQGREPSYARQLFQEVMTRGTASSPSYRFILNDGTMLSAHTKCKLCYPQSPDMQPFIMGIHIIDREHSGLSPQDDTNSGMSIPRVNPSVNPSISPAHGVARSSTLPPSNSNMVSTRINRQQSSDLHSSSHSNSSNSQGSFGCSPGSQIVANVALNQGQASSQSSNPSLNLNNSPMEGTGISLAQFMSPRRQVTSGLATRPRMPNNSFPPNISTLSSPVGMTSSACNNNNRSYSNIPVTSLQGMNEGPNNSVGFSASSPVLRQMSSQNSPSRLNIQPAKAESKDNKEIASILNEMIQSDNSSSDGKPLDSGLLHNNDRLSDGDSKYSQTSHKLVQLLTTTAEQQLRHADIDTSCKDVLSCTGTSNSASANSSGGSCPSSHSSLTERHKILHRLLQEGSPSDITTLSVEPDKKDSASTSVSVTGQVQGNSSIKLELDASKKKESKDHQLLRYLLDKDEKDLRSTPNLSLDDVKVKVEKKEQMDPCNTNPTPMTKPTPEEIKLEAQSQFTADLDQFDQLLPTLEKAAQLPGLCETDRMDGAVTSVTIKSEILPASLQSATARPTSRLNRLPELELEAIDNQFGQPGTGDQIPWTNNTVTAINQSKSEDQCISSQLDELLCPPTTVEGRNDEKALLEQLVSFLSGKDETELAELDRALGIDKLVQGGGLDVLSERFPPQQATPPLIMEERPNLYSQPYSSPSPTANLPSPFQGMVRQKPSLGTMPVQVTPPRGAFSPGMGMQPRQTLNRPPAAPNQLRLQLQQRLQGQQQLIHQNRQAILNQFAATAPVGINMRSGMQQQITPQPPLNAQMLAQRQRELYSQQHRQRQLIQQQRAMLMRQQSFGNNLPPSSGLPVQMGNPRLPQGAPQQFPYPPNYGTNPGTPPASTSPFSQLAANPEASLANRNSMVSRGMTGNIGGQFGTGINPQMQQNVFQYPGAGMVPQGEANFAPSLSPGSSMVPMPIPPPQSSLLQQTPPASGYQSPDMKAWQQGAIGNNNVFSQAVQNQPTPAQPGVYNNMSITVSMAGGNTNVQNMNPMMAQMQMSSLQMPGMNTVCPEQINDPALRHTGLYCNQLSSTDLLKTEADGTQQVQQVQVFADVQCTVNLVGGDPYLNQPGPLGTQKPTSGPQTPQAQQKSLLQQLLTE
Test: TR-FRET dose response biochemical High Throughput Screening assay for agonists of the steroid receptor coactivator 1 (SRC-1) recruitment by the peroxisome proliferator-activated receptor gamma (PPAR gamma): non-selective agonists. [Related pubchem assays (depositor defined):AID1300, AID1808, AID504735, AID631]
Format: protein assay
The source made the active and inactive calls.
PARAMETER MEASURED: EC50

• Cn1c(S)nnc1-c1sc2cc(C(F)(F)F)cnc2c1-c1ccccc1 = 3.6 µM (active)
• COc1ccc(C(=O)C2=C(O)C(=O)N(c3cc(C)on3)C2c2ccccc2OC)cc1 (configuration not stated) = 22.9 µM (inactive)
• CCOc1ccccc1-c1nnc(S)o1 = > 2.94 µM (inactive)
• c1ccc(-c2nc(-c3cccs3)[nH]c2-c2ccccc2)cc1 = 42.6 µM (inactive)
• COC(=O)c1c(N=C(S)Nc2ccccc2Cl)sc(C)c1C = 84.9 µM (inactive)
• CCOC(=O)c1ccc2c(c1)nc(S)n2CC = 17.5 µM (inactive)
• Cn1c(=O)cc(SCC(=O)NCC2CCCO2)c2ccccc21 (configuration not stated) = > 79.4 µM (inactive)

====

Recorded AC50, one value per entry.
Molecular target: FAD-linked sulfhydryl oxidase ALR (Homo sapiens, UniProt P55789)
Sequence (P55789 whole entry): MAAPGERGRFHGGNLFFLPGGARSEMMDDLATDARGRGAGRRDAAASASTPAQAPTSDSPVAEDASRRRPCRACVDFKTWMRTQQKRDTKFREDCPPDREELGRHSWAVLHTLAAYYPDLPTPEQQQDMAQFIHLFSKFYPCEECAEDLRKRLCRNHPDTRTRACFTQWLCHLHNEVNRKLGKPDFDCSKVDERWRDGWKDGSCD
Assay: inhibitors of human ALR sulfhydryl oxidase, dose response, biochemical, H2O2 detection, luminescence, cherry-pick (AID 493248)
Calls of active or inactive are those of the source.
PARAMETER MEASURED: AC50

* C=CCN1CCc2c(cc(O)c(O)c2Cl)C(c2ccccc2)C1 (stereo not drawn) | 4.74 µM (active)
* O=C(NCC(=O)N1CCN(c2ccccc2O)CC1)c1cccs1 | 4.14 µM (active)
* O=C(NNc1ccccn1)C(=O)NNS(=O)(=O)c1ccc(Cl)cc1 | 0.786 µM (active)

====

Biological target: Streptokinase A (Streptococcus pyogenes serotype M1, UniProt P10520)
Sequence (P10520 whole entry): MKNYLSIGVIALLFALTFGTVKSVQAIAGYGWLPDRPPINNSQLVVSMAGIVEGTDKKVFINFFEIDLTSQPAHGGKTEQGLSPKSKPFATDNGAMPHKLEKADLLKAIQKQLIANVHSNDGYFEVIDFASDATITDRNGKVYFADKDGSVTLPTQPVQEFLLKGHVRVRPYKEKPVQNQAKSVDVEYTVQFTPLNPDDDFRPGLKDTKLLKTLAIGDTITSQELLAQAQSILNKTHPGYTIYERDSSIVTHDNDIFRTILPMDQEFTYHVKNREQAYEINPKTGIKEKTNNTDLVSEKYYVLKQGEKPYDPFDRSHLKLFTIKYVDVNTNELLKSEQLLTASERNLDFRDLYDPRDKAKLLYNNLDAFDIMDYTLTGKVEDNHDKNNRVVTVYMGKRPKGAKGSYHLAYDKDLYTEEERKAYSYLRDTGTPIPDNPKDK
Assay: S. pyogenes streptokinase expression inhibitors, potency, dose response, plasminogen activation absorbance, OD405 (AID 1914);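 note: secreted streptokinase activity via plasminogen activation per viability signal from cell pellet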
Type: functional, Streptococcus pyogenes M1 GAS
The source made the active and inactive calls.
EC50 values for the molecules below.
PARAMETER MEASURED: EC50

• Fc1cc(F)c(C2SCCN2C(=S)Nc2cccc(C(F)(F)F)c2)c(F)c1 (stereo not given) = 11.1 µM (active)
• O=[N+]([O-])c1ccc(-c2nc(Nc3cccc(O)c3)c3ccccc3n2)cc1 = > 150 µM (not active)
• CCN(c1ccccc1)S(=O)(=O)c1ccc(C(=O)Nc2nnc(CSC)o2)cc1 = > 150 µM (not active)
• CCCc1cc(=O)n2nc(C)c(-c3ccc(Cl)cc3)c2[nH]1 = > 150 µM (not active)
• O=C(N/N=C/c1cc(Cl)cc([N+](=O)[O-])c1O)c1ccccc1NS(=O)(=O)c1cccs1 = > 150 µM (not active)
• Cc1ccc(SCc2cc(=O)[nH]c(SCC(=O)Nc3cc(Cl)ccc3Cl)n2)cc1 = 42.6 µM (inconclusive)
• c1ccc(N=C2N=C(Nc3ccccn3)c3ccccc32)nc1 = 22.2 µM (active)
• CC1CCc2c(sc3nc(C(C)(C)C)nc(N4CCN(C(=O)CCl)CC4)c23)C1 (stereo not given) = 1.79 µM (active)
• O=C(Nc1ccc([N+](=O)[O-])cc1)Nc1ccc(Cl)cc1F = > 150 µM (not active)
• Cc1[nH][nH]c(=O)c1C(c1c(C)[nH][nH]c1=O)c1cn(Cc2ccc(Cl)c(Cl)c2)c2ccccc12 = 10.1 µM (active)
• Cc1nnc(NC(=O)c2ccc(S(=O)(=O)N3CC(C)CC(C)C3)cc2)o1 (stereo not given) = > 150 µM (not active)
• O=C(CCC(=O)Nc1ccc(Br)cc1)N/N=C/c1ccccc1O = > 150 µM (not active)
• Nc1c(Cl)cc(-c2csc(N3CCCC3c3nc4cc(Cl)c(Cl)cc4n3CCOCCO)n2)cc1Cl (stereo not given) = > 150 µM (not active)
• COc1cccc(C(=O)Nc2nnc(-c3cccs3)o2)c1 = > 150 µM (not active)
• Cc1cc2c(cc1C)CSC(c1c(O)ccc3ccccc13)SC2 = 3.41 µM (active)
• O=C(c1nc2ccc(Cl)cn2c1CN1CCC(CO)CC1)N1CCc2ccccc2C1 = > 150 µM (not active)
• O=C(Nc1ccc(Cl)c(Cl)c1)C1CC(=O)N(c2ccc(Br)cc2)C1 (stereo not given) = 20.1 µM (active)
• Cc1ccccc1C(=O)N=c1nc(S)ss1 = 2.04 µM (active)
• Cc1sc2ncnc(SCC(=O)N3CCCC(C(F)(F)F)C3)c2c1C (stereo not given) = > 150 µM (not active)
• CCCCCCCCCCOC(=O)Cn1c(COc2ccccc2)[n+](C)c2ccccc21 = > 150 µM (not active)
